Multiple publications report Ki for Protease (Human immunodeficiency virus 1); what follows is a combined list.

Solved entries:
| Compound | Ki |
| --- | --- |
| Cc1ccccc1CNC(=O)[C@H]1N(C(=O)[C@@H](O)[C@H](Cc2ccccc2)NC(=O)c2cccc(O)c2C)CSC1(C)C | 0.035 nM |
| COC(=O)N[C@H](C(=O)N[C@@H](Cc1ccccc1)[C@@H](O)CN(Cc1ccc(-c2ccccn2)cc1)NC(=O)[C@@H](NC(=O)OC)C(C)(C)C)C(C)(C)C | 0.5 nM |
| C[C@H]1Cc2ccccc2S(=O)(=O)N(CC(O)C(Cc2ccccc2)NC(=O)OC(C)(C)C)C1 (single isomer, unassigned) | 29 nM |
| CNC(=O)[C@H](C(C)C)n1cc([C@H](Cc2ccccc2)n2cc([C@H](Cc3ccccc3)n3cc([C@@H](N)C(C)C)nn3)nn2)nn1 | 500000 nM |
| Nc1cccc(CN2C(=O)NC(CCc3ccccc3)C(O)C2Cc2ccccc2)c1 (stereo unspecified) | 158 nM |

Q: Determine its reported Ki: `CNC(=O)[C@@H](NC(=O)[C@@](O)(CCCN(Cc1ccc(Br)cc1)NC(=O)[C@@H](NC(=O)OC)C(C)(C)C)Cc1ccccc1)C(C)C`
A: 2.7 nM

Q: Determine its reported Ki: `COc1ccc(C[C@H](NC(=O)c2cccc(N)c2Cl)[C@H](O)C(=O)N2CSC(C)(C)[C@H]2C(=O)NCc2c(C)cccc2C)cc1`
A: 0.138 nM
